Tested on: M14 melanoma
experiment: NCI tumour cell line growth inhibition, 48 h; in the data active = GI50 below about 0.43 µM; inactive = the rest
Permitted responses: active, inactive

Query: In this assay, the call recorded for COc1cc(C=C2c3ccccc3C(=O)c3ccccc32)ccc1OCCCCOc1cc2c(cc1OC)C(=O)N1CCCC1C=N2 (stereo not given) was what?
Result: inactive

Query: In this assay, the call recorded for "COC1=C(C)C(=O)N2[C@@H]1[C@H](c1ccccc1)OC21C=CC(=O)C=C1" was what?
Result: inactive

Query: In this assay, the call recorded for "O=C1C(=O)/C(=C/c2ccccc2)CCCCCC/C1=C/c1ccccc1" was what?
Result: inactive

Query: In this assay, the call recorded for "O=[N+]([O-])c1cc([N+](=O)[O-])c(NN=C(c2ccc(O)cc2)c2ccc(O)cc2)cc1Cl" was what?
Result: inactive

Query: In this assay, the call recorded for CC(c1ccccc1)N1C(=O)CSC1=S (stereo not given) was what?
Result: active
